# Tested on: CD4+ T cells
# assay.procedure: exogenous autologous normal donor restimulation assay, TNFα/IFNγ double positive CD4+ T cells by flow cytometry
# Assay type: cell-based, human
# study.conditions: maximum CD4+ T-cell response (TNFα and IFNγ), donor independent; peptide pool 10 μg/mL; healthy donors
Record form. Attribute: Fold change (CD4+) vs. DMSO. Fill in for each entry.
# unit: fold | format: bare number

In: Hi! What's the reported Fold change (CD4+) vs. DMSO for RYWTPATSSEYSNL [AS143, neoantigen, alternative splicing of MUC16] on CD4+ T cells?
Out: 3.6

In: Give recorded Fold change (CD4+) vs. DMSO with CD4+ T cells for the following sequence: GTMEVKSKKKQTTVPLVQTR [AS67, neoantigen, alternative splicing of PARD6B]
Out: 3.15

In: Test system CD4+ T cells; read-out Fold change (CD4+) vs. DMSO; what value for YCKNDFFRSLPCHLL [AS16, neoantigen, alternative splicing of LHX1] ?
Out: 5.43

In: Hi! What's the reported Fold change (CD4+) vs. DMSO for RRHGEVQGLLEREKTARGNPSG [AS72, neoantigen, alternative splicing of SMC1B] on CD4+ T cells?
Out: 4.15

In: Fill in the recorded Fold change (CD4+) vs. DMSO for this sequence, with CD4+ T cells as test system: QLNLSETQFAQYAEIV [FUS2, neoantigen, gene fusion VAX2->ATP6V1B1]
Out: 21.76

In: Item: VLTVTSTDQEYLDLSAP [AS44, neoantigen, alternative splicing of FGFR3] Test system: CD4+ T cells Read-out: Fold change (CD4+) vs. DMSO Value: ?
Out: 13.45

In: Identify the measured Fold change (CD4+) vs. DMSO of AMAKKQRPDTAFWVQH [AS12, neoantigen, alternative splicing of IQGAP3] for CD4+ T cells.
Out: 8.4

In: Which measured Fold change (CD4+) vs. DMSO belongs to NIEDVATEDGRHGGCHHGPGR [AS71, neoantigen, alternative splicing of SLC6A2] , tested on CD4+ T cells?
Out: 10.95

* * *

# System: CD8+ T cells
# assay.procedure: exogenous autologous normal donor restimulation assay, TNFα/IFNγ double positive CD8+ T cells by flow cytometry
# Assay type: cell-based, human
# study.conditions: maximum CD8+ T-cell response (TNFα and IFNγ), donor independent; peptide pool 10 μg/mL; healthy donors
readout: Fold change (CD8+) vs. DMSO (fold)
Just the number please, in fold, no unit attached.

In: Please give the measured Fold change (CD8+) vs. DMSO for this sequence: EEDREKYRWMAPFVPGQVWTWEYFL [AS28, neoantigen, alternative splicing of HYDIN]
Out: 8.82

In: Tell me the measured Fold change (CD8+) vs. DMSO of HFECYHCEIRIPRKSNGIRGFLLTWRRDGNTSTSVQQTTSSL [FUS11, neoantigen, gene fusion AJUBA->HAUS4] , please.
Out: 3.3

In: Query: Fold change (CD8+) vs. DMSO; subject: LDLAGNARPCRSQSPTSSDQTPSVPSLGSPELPDGEEGGSPDGSPQESEQVRQGQHV [AS103, neoantigen, alternative splicing of GTF2IRD1]
Out: 48.82

In: Request the reported Fold change (CD8+) vs. DMSO associated with VIPGDLSEAHGYSFS [AS5, neoantigen, alternative splicing of PLAG1]
Out: 2.41

In: Tell me the measured Fold change (CD8+) vs. DMSO of MAGGVLRRLLCREPDRDGDKGASREETVVPLHIGDPVVLPGIGQCYSALF [FUS1, neoantigen, gene fusion TSTD1->F11R] , please.
Out: 2.79

In: Would you mind telling me what Fold change (CD8+) vs. DMSO value was observed for YGNDQWLQMRKWRHRE [FUS13, neoantigen, gene fusion MFGE8->HAPLN3] ?
Out: 5.12

In: I'd like to know its Fold change (CD8+) vs. DMSO. The sequence in question is SGCRLTLLSLSPVSSLGCPVPMP [AS107, neoantigen, alternative splicing of MUC16]
Out: 2351.27
